- Tested on: S. aureus NRS11 (Mec^S)
- Experiment: MIC against S. aureus NRS11 (Table 13)
- Format: cell-based, Staphylococcus aureus
- Measurement Parameters: Staphylococcus aureus, compounds dissolved in DMSO or 1% sodium carbonate, read-out: MIC
Below: a set of entries, each annotated with reported MIC.

Molecule	Study Target	MIC
CC(Oc1ccc(NC(=O)c2c(Br)c(Br)c(Br)c(Br)c2C(=O)O)cc1Cl)c1ccccc1 (centres unmarked)	S. aureus NRS11 (Mec^S)	< 8 µg/mL
O=C(O)c1c(Br)c(Br)c(Br)c(Br)c1C(=O)Nc1ccc(OCc2cccc(C(F)(F)F)c2)c(Cl)c1	S. aureus NRS11 (Mec^S)	< 8 µg/mL
CCCCCCCCOc1ccc(NC(=O)c2c(Br)c(Br)c(Br)c(Br)c2C(=O)O)cn1	S. aureus NRS11 (Mec^S)	< 8 µg/mL
CCCCCCCCOc1ccc(NC(=O)c2ccccc2C(=O)O)c[n+]1[O-]	S. aureus NRS11 (Mec^S)	> 2000 µg/mL
O=C(O)c1c(Cl)c(Cl)c(Cl)c(Cl)c1C(=O)Nc1ccc(OCc2cccc(C(F)(F)F)c2)c(Cl)c1	S. aureus NRS11 (Mec^S)	< 8 µg/mL
